Biological target: T1, human TGFβ3 (human, UniProt P10600 301-412)
T1 sequence: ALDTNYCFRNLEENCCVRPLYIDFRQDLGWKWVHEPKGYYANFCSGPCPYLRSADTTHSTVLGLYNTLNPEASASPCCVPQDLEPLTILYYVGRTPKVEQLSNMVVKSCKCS
Assay: Biacore off-rate vs wt GC1008, 50 nM
reported property: kd var/kd wt
Numbers only.

Some solved cases for reference:
- binder: "N32P (antibody, V domains shown, GC1008 IgG4 variant) VH: QVQLVQSGAEVKKPGSSVKVSCKASGYTFSSPVISWVRQAPGQGLEWMGGVIPIVDIANYAQRFKGRVTITADESTSTTYMELSSLRSEDTAVYYCASTLGLVLDAMDYWGQGTLVTVSS VL: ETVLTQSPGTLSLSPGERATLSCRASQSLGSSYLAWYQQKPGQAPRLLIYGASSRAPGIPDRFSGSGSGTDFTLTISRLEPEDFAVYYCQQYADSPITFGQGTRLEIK"
  reported property: "kd var/kd wt"
  readout number: 1.4
- binder: "S30Y (antibody, V domains shown, GC1008 IgG4 variant) VH: QVQLVQSGAEVKKPGSSVKVSCKASGYTFYSNVISWVRQAPGQGLEWMGGVIPIVDIANYAQRFKGRVTITADESTSTTYMELSSLRSEDTAVYYCASTLGLVLDAMDYWGQGTLVTVSS VL: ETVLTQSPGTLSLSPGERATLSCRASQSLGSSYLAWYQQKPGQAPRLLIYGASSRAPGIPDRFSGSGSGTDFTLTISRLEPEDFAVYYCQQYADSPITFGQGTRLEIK"
  reported property: "kd var/kd wt"
  readout number: 0.8

Read the next record carefully.
Given the entry S30F (antibody, V domains shown, GC1008 IgG4 variant) VH: QVQLVQSGAEVKKPGSSVKVSCKASGYTFFSNVISWVRQAPGQGLEWMGGVIPIVDIANYAQRFKGRVTITADESTSTTYMELSSLRSEDTAVYYCASTLGLVLDAMDYWGQGTLVTVSS VL: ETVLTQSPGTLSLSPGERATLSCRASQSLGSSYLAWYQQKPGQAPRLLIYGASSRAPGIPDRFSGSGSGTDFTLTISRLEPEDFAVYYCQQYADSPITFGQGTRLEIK , report its measured kd var/kd wt.
0.7

Origin of measurements: patent US20170342144A1
